This section presents sequences with their documented binding signal values.
Target: MBP-FoxP1dN (Mus musculus, UniProt P58462 326-579)
Sequence: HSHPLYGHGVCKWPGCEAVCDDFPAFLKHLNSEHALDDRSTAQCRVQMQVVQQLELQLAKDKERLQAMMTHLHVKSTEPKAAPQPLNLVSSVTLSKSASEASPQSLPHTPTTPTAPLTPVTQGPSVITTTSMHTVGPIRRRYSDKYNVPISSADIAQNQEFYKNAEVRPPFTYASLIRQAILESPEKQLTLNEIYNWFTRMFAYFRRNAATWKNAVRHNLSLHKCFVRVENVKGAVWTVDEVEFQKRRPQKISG
Test: PD-seq (MBP pull-down with sequencing); 20 mM Tris-HCl pH 7.5, 100 mM NaCl, 1.5 mM MgCl2, 0.4 uM protein, 0.1 uM dsDNA library, 30 min, room temperature, amylose pull-down; high values mean tight binding
Details: protein: recombinant; tags: His6-MBP; chain copies: 2; dsDNA, one strand shown
The full ranking holds about 16,000 sequences; the median of “rpm ratio (pull-down/input)” is about 0.94, and the highest 2% start at about 1.7. The list comes from a sample in which the highest values are over-represented; it also holds close analogues and randomly drawn sequences.
TEST_READOUT: binding signal

sequence_data=GATGATTGTTCTCCCAGCTGATGAATTAACTACCTCGAGTAAACAAATTTTCCTAATCTTTCTGTTCAAGCGCCATCTAC result="0.879 RPM ratio (pull-down/input)"
sequence_data=GATGATTGTTCTCCCAGCTGATGAATTCATAAACTCGAGTAAACAAATTTTCCTAATCTTTCTGTTCAAGCGCCATCTAC result="1.07 RPM ratio (pull-down/input)"
sequence_data=GATGATTGTTCTCCCAGCTGATGAATTTATGTAATCGAGTAAACAAATTTTCCTAATCTTTCTGTTCAAGCGCCATCTAC result="1.95 RPM ratio (pull-down/input)"
sequence_data=GATGATTGTTCTCCCAGCTGATGAATTATGATTATCGAGTAAACAAATTTTCCTAATCTTTCTGTTCAAGCGCCATCTAC result="1.51 RPM ratio (pull-down/input)"
sequence_data=GATGATTGTTCTCCCAGCTGATGAATTTGATGTGTCGAGTAAACAAATTTTCCTAATCTTTCTGTTCAAGCGCCATCTAC result="1.16 RPM ratio (pull-down/input)"
sequence_data=GATGATTGTTCTCCCAGCTGATGAATTATCTTTATCGAGTAAACAAATTTTCCTAATCTTTCTGTTCAAGCGCCATCTAC result="1.09 RPM ratio (pull-down/input)"
sequence_data=GATGATTGTTCTCCCAGCTGATGAATTCATCTTATCGAGTAAACAAATTTTCCTAATCTTTCTGTTCAAGCGCCATCTAC result="0.961 RPM ratio (pull-down/input)"
sequence_data=GATGATTGTTCTCCCAGCTGATGAATTCATGTTATCGAGTAAACAAATTTTCCTAATCTTTCTGTTCAAGCGCCATCTAC result="1.78 RPM ratio (pull-down/input)"
sequence_data=GATGATTGTTCTCCCAGCTGATGAATTTTATGAATCGAGTAAACAAATTTTCCTAATCTTTCTGTTCAAGCGCCATCTAC result="0.942 RPM ratio (pull-down/input)"
sequence_data=GATGATTGTTCTCCCAGCTGATGAATTTTATGTATCGAGTAAACAAATTTTCCTAATCTTTCTGTTCAAGCGCCATCTAC result="1.71 RPM ratio (pull-down/input)"
sequence_data=GATGATTGTTCTCCCAGCTGATGAATTCAGTCTATCGAGTAAACAAATTTTCCTAATCTTTCTGTTCAAGCGCCATCTAC result="0.905 RPM ratio (pull-down/input)"
sequence_data=GATGATTGTTCTCCCAGCTGATGAATTACTATATTCGAGTAAACAAATTTTCCTAATCTTTCTGTTCAAGCGCCATCTAC result="1.23 RPM ratio (pull-down/input)"
sequence_data=GATGATTGTTCTCCCAGCTGATGAATTTGCTGTGTCGAGTAAACAAATTTTCCTAATCTTTCTGTTCAAGCGCCATCTAC result="1.14 RPM ratio (pull-down/input)"
sequence_data=GATGATTGTTCTCCCAGCTGATGAATTCATGTAATCGAGTAAACAAATTTTCCTAATCTTTCTGTTCAAGCGCCATCTAC result="1.5 RPM ratio (pull-down/input)"
sequence_data=GATGATTGTTCTCCCAGCTGATGAATTATACCTCTCGAGTAAACAAATTTTCCTAATCTTTCTGTTCAAGCGCCATCTAC result="0.896 RPM ratio (pull-down/input)"
